Reported values of IC50 for individual entries
# Test system: TLR2 induced IL-6 in peripheral blood mononuclear cells (PBMCs)
# measurementProtocol: PBMC TLR2 Induced IL-6 Assay
# Assay type: cell-based, human
# conditionDetails: Homo sapiens, PBMC, 5 h, human PBMCs, 10 μg/ml lipoteichoic acid for 5 hours, IL-6 by ELISA; value without asterisk; read-out: Cell IC50

| compound | IC50, nM |
| --- | --- |
| CC(C)(O)[C@H](F)CNC(=O)c1cnc(Nc2ccn3nccc3c2)cc1NC1CC(F)C1 (stereo partly drawn) | 384 |
| C[C@@H](CO)Nc1cc(Nc2nc3scnc3cc2F)ncc1C(=O)N[C@H]1CC[C@H](O)CC1 | 1350 |
| CC(C)(O)[C@H](F)CNC(=O)c1cnc(Nc2cnc3[nH]ccc3c2)cc1NC1CC1 | 52 |
| CC(C)(O)[C@H](F)CNC(=O)c1cnc(Nc2ccc3ncsc3c2)cc1NC12CCC(NC(=O)c3ccccn3)(CC1)C2 | 119 |
| CC(C)(O)[C@H](F)CNC(=O)c1cnc(Nc2ccc3ncccc3n2)cc1NC1CCCC1F (stereo partly drawn) | 1010 |
| CC(C)Nc1cc(Nc2ccc3ncsc3c2)ncc1C(=O)NCCC(C)(C)O | 290 |
| CC(C)Nc1cc(Nc2ccc3ncsc3c2)ncc1C(=O)NCC[C@@H](C)NC(=O)OC(C)(C)C | 402 |
| CC(C)(O)[C@H](F)CNC(=O)c1cnc(Nc2ccc3nsnc3c2)cc1N[C@@H](c1ccccc1)[C@H](O)CO | 312 |
| Cc1cnc2ccc(Nc3cc(NC4CC4)c(C(=O)NC[C@@H](F)C(C)(C)O)cn3)nn12 | 256 |
| O=C(NC1CCC(O)CC1)c1cnc(Nc2ccc3nccn3n2)cc1NC1CCC1 (stereo not drawn) | 458 |
| CC(C)(O)[C@H](F)CNC(=O)c1cnc(Nc2ccc3nccnc3c2)cc1NC1CCCCCC1 | 457 |
| CC(Nc1cc(Nc2ccc3ncsc3c2)ncc1C(=O)NC[C@@H](F)C(C)(C)O)C1CC1 (stereo partly drawn) | 570 |
